Value source: patent EP4471048A1

Measured Target: T1, Nluc-IL23R fusion protein (human, UniProt Q5VWK5 22-629)
T1 construct: range 22-629; Stably expressed in HEK293 cells; also called hIL-23R; human IL-23R; not shown: Nanoluc protein (N1371, Promega) at the N-terminus, after a secretion signal
T1 sequence (looked up): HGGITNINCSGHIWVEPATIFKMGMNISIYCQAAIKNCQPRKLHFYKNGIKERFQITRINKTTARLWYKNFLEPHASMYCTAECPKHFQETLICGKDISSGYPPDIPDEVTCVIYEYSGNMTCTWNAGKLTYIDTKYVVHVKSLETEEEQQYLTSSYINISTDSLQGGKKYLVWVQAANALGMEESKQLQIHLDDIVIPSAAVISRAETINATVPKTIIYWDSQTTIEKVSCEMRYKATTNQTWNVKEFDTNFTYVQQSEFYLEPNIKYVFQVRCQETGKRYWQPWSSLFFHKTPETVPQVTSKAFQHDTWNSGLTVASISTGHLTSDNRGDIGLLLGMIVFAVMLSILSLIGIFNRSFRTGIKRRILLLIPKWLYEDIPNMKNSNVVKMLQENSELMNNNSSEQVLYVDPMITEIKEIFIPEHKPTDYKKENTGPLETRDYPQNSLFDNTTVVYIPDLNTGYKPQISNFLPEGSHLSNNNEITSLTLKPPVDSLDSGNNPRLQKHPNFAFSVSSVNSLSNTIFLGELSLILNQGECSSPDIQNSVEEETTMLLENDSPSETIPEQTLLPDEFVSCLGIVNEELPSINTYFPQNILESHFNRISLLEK
Test Summary: BRET competition vs TAMRA-labelled peptide, Nluc-IL23R membranes
Bridges are numbered along the chain shown (N, C = ends). [ ]: non-standard residue; d: D form. 2Nal = N[C@@H](Cc1ccc2ccccc2c1)C(=O)O; AEF = NCCOc1ccc(C[C@H](N)C(=O)O)cc1; 3Pal = N[C@@H](Cc1cccnc1)C(=O)O; αMeL = CC(C)C[C@](C)(N)C(=O)O; Dab = NCC[C@H](N)C(=O)O; βAla = NCCC(=O)O
% displacement values for the binders below.
Provide only the numeric value, understood in %.

Binder	Reported Metric	Readout Value
K[βAla]WQEW[2Nal][αMeL]E[Dab][3Pal]-NHMe (lactam 1-9, N-5; SMILES CNC(=O)[C@H](Cc1cccnc1)NC(=O)[C@H](CCN)NC(=O)[C@@H]1CCC(=O)NCCCC[C@@H]2NC(=O)CC[C@H](NC(=O)[C@H](CCC(N)=O)NC(=O)[C@H](Cc3c[nH]c4ccccc34)NC(=O)CCNC2=O)C(=O)N[C@@H](Cc2c[nH]c3ccccc23)C(=O)N[C@@H](Cc2ccc3ccccc3c2)C(=O)N[C@@](C)(CC(C)C)C(=O)N1) [Compound 110]	% displacement	100

Please look at the following binder next.
*Q* Would you mind telling me what % displacement value was observed for K[βAla]WQE[AEF][2Nal][αMeL]E[Dab][3Pal]-NHMe (lactam 1-9, N-5; SMILES CNC(=O)[C@H](Cc1cccnc1)NC(=O)[C@H](CCN)NC(=O)[C@@H]1CCC(=O)NCCCC[C@@H]2NC(=O)CC[C@H](NC(=O)[C@H](CCC(N)=O)NC(=O)[C@H](Cc3c[nH]c4ccccc34)NC(=O)CCNC2=O)C(=O)N[C@@H](Cc2ccc(OCCN)cc2)C(=O)N[C@@H](Cc2ccc3ccccc3c2)C(=O)N[C@@](C)(CC(C)C)C(=O)N1) [Compound 45] ?
*A* 100
